# Test system: SK-MEL-5
# Experimental Protocol: NCI 60 cell line five dose, Melanoma
# Setup Conditions: read-out: LC50; SK-MEL-5
Parameter: CC50 (µM)
Write down the numeric answer in µM and omit the unit.

According to the records, this compound "C=C1C(=O)O[C@H]2[C@H]1CC/C(COC(=O)NCCCCCNC(=O)OC/C1=C/CC[C@@]3(C)O[C@H]3[C@H]3OC(=O)C(=C)[C@@H]3CC1)=C\CC[C@@]1(C)O[C@@H]21" displays CC50 of 37

====

# Tested on: PC-3
# Experimental Protocol: NCI 60 cell line five dose, Prostate Cancer
# Setup Conditions: read-out: LC50, molar
Parameter: CC50

PC-3 CC50 of "C=C1C(=O)O[C@H]2[C@H]1CC/C(COC(=O)NCCCCCCCCNC(=O)OC/C1=C/CC[C@@]3(C)O[C@H]3[C@H]3OC(=O)C(=C)[C@@H]3CC1)=C\CC[C@@]1(C)O[C@@H]21" is 5.2 µM

====

Overview of recorded CC50 for various compounds
# Test system: M9ENL AML cell lines
# Setup Conditions: read-out: LC50; M9ENL AML cell lines; after 24 hours of drug exposure
Enter your answer as a number in nM; do not include the unit.

Compound: C=C1C(=O)OC2C1CCC(COC(=O)NCCCCCCCCCNC(=O)OCC1=CCCC3(C)OC3C3OC(=O)C(=C)C3CC1)=CCCC1(C)OC21 (stereo not shown)
Target Under Test: M9ENL AML cell lines
CC50 (nM): 1800

Compound: C=C1C(=O)O[C@H]2[C@H]1CC/C(COC(=O)NCCCCCCCCCCNC(=O)OC/C1=C/CC[C@@]3(C)O[C@H]3[C@H]3OC(=O)C(=C)[C@@H]3CC1)=C\CC[C@@]1(C)O[C@@H]21
Target Under Test: M9ENL AML cell lines
CC50 (nM): 1600

M9ENL AML cell lines data for C=C1C(=O)OC2C1CCC(COC(=O)NCCCCCCCNC(=O)OCC1=CCCC3(C)OC3C3OC(=O)C(=C)C3CC1)=CCCC1(C)OC21 (stereo not shown) ; its CC50: 1200

The measured CC50 that C=C1C(=O)OC2C1CCC(COC(=O)NCCCNC(=O)OCC1=CCCC3(C)OC3C3OC(=O)C(=C)C3CC1)=CCCC1(C)OC21 (stereo not shown) showed for M9ENL AML cell lines is 560

Measured CC50 (M9ENL AML cell lines), entry "C=C1C(=O)O[C@H]2[C@H]1CC/C(COC(=O)NCCCCCNC(=O)OC/C1=C/CC[C@@]3(C)O[C@H]3[C@H]3OC(=O)C(=C)[C@@H]3CC1)=C\CC[C@@]1(C)O[C@@H]21" : 1350

C=C1C(=O)OC2C1CCC(COC(=O)NCCCCCCNC(=O)OCC1=CCCC3(C)OC3C3OC(=O)C(=C)C3CC1)=CCCC1(C)OC21 (stereo not shown) tested on M9ENL AML cell lines gave CC50: 340

Simply: "C=C1C(=O)O[C@H]2[C@H]1CC/C(COC(=O)NCCCCCCCCNC(=O)OC/C1=C/CC[C@@]3(C)O[C@H]3[C@H]3OC(=O)C(=C)[C@@H]3CC1)=C\CC[C@@]1(C)O[C@@H]21" , M9ENL AML cell lines, CC50 = 1000

====

Entries and their CC50
# Test system: MDA-MB-435
# Experimental Protocol: NCI 60 cell line five dose, Melanoma
# Setup Conditions: read-out: LC50
Report only the number, with the unit µM understood.

Compound: C=C1C(=O)O[C@H]2[C@H]1CC/C(COC(=O)NCCCCCNC(=O)OC/C1=C/CC[C@@]3(C)O[C@H]3[C@H]3OC(=O)C(=C)[C@@H]3CC1)=C\CC[C@@]1(C)O[C@@H]21 [JVM 2-76]
Target Under Test: MDA-MB-435
CC50 (µM): 7.3

Just so you know, measured CC50 for C=C1C(=O)O[C@H]2[C@H]1CC/C(COC(=O)NCCCCNC(=O)OC/C1=C/CC[C@@]3(C)O[C@H]3[C@H]3OC(=O)C(=C)[C@@H]3CC1)=C\CC[C@@]1(C)O[C@@H]21 [JVM 3-54] came out at 9.42
